- System: Acinetobacter baumannii
- ASSAY: Antimicrobial activity against carbapenemase-producing Acinetobacter baumannii ACM 11 assessed as inhibition of bacterial growth incubated for 18 hrs by CLSI based serial broth dilution method
- Format: functional
- MEASUREMENT_PARAMETERS: ACM 11, 18 h
Where a SMILES comes first, the peptide text is derived from it. [ ]: non-standard residue; d: D form. The star is where a group is joined. dOrn = NCCC[C@@H](N)C(=O)O; Octanoyl = CCCCCCCC(=O)*; Orn = NCCC[C@H](N)C(=O)O
ENDPOINT: MIC (µg/mL)
Give bare numbers, in µg/mL.

The compound CCCCCCCC(=O)N[C@@H](C(=O)N[C@H](CCCN)C(=O)NCC(=O)N[C@H](CO)C(=O)N[C@H](Cc1c[nH]c2ccccc12)C(=O)N[C@@H](CO)C(=O)N[C@@H](CCCN)C(=O)N[C@H](CCCN)C(=O)N[C@@H](Cc1ccccc1)C(=O)N[C@@H](CCC(=O)O)C(=O)N[C@H](C(=O)N[C@@H](C(=O)N[C@@H](C)C(=O)O)C(C)C)C(C)C)C(C)C (Octanoyl-[dV][dOrn]G[dS][dW]S[Orn][dOrn]FEV[dV]A-OH) showed MIC equal to 25

###

So I've got a bunch of molecules here, and I need their MIC values.
- Test system: Enterobacter cloacae
- ASSAY: Antimicrobial activity against carbapenemase-producing Enterobacter cloacae […] assessed as inhibition of bacterial growth incubated for 18 hrs by CLSI based serial broth dilution method
- Assay type: functional
Where a SMILES comes first, the peptide text is derived from it. [ ]: non-standard residue; d: D form. The star is where a group is joined. d(aIle) = CC[C@H](C)[C@@H](N)C(=O)O; dOrn = NCCC[C@@H](N)C(=O)O; dDab = NCC[C@@H](N)C(=O)O; Octanoyl = CCCCCCCC(=O)*; Orn = NCCC[C@H](N)C(=O)O; Dab = NCC[C@H](N)C(=O)O
Answers are plain numbers, in µg/mL.

Below are worked cases with known answers.
CCCCCCCC(=O)N[C@@H](C(=O)N[C@H](CCN)C(=O)NCC(=O)N[C@H](CO)C(=O)N[C@H](Cc1c[nH]c2ccccc12)C(=O)N[C@@H](CO)C(=O)N[C@@H](CCN)C(=O)N[C@H](CCN)C(=O)N[C@@H](Cc1ccccc1)C(=O)N[C@@H](CCC(=O)O)C(=O)N[C@H](C(=O)N[C@@H](C(=O)N[C@@H](C)C(=O)O)C(C)C)C(C)C)C(C)C (Octanoyl-[dV][dDab]G[dS][dW]S[Dab][dDab]FEV[dV]A-OH)
6.25
CCCCCCCC(=O)N[C@@H](C(=O)N[C@H](CCCCN)C(=O)NCC(=O)N[C@H](CO)C(=O)N[C@H](Cc1c[nH]c2ccccc12)C(=O)N[C@@H](CO)C(=O)N[C@@H](CCCCN)C(=O)N[C@H](CCCCN)C(=O)N[C@@H](Cc1ccccc1)C(=O)N[C@@H](CCC(=O)O)C(=O)N[C@H](C(=O)N[C@@H](C(=O)N[C@@H](C)C(=O)O)[C@@H](C)CC)C(C)C)C(C)C (HELM PEPTIDE1{[CCCCCCCC(=O)[*:2]].[dV].[dK].G.[dS].[dW].S.K.[dK].F.E.V.[CC[C@H](C)[C@@H](N[*:1])C(=O)[*:2]].A}$$$$V2.0)
25
CCCCCCCC(=O)N[C@@H](C(=O)N[C@H](CCCN)C(=O)NCC(=O)N[C@H](CO)C(=O)N[C@H](Cc1c[nH]c2ccccc12)C(=O)N[C@@H](CO)C(=O)N[C@@H](CCCN)C(=O)N[C@H](CCCN)C(=O)N[C@@H](Cc1ccccc1)C(=O)N[C@@H](CCC(=O)O)C(=O)N[C@H](C(=O)N[C@@H](C(=O)N[C@@H](C)C(=O)O)C(C)C)C(C)C)C(C)C (Octanoyl-[dV][dOrn]G[dS][dW]S[Orn][dOrn]FEV[dV]A-OH)
12.5
CCCCCCCC(=O)N[C@@H](C(=O)N[C@H](CCCCN)C(=O)NCC(=O)N[C@H](CO)C(=O)N[C@H](Cc1c[nH]c2ccccc12)C(=O)N[C@@H](CO)C(=O)N[C@@H](CCCCN)C(=O)N[C@H](CCN)C(=O)N[C@@H](Cc1ccccc1)C(=O)N[C@@H](CCC(=O)O)C(=O)N[C@H](C(=O)N[C@@H](C(=O)N[C@@H](C)C(=O)O)[C@@H](C)CC)C(C)C)C(C)C (Octanoyl-[dV][dK]G[dS][dW]SK[dDab]FEV[d(aIle)]A-OH)
25
CCCCCCCC(=O)N[C@@H](C(=O)N[C@H](CCCN)C(=O)NCC(=O)N[C@H](CO)C(=O)N[C@H](Cc1c[nH]c2ccccc12)C(=O)N[C@@H](CO)C(=O)N[C@@H](CCCN)C(=O)N[C@H](CCN)C(=O)N[C@@H](Cc1ccccc1)C(=O)N[C@@H](CCC(=O)O)C(=O)N[C@H](C(=O)N[C@@H](C(=O)N[C@@H](C)C(=O)O)[C@@H](C)CC)C(C)C)C(C)C (Octanoyl-[dV][dOrn]G[dS][dW]S[Orn][dDab]FEV[d(aIle)]A-OH)
25

The record that follows has no MIC shown yet.
The molecule CCCCCCCC(=O)N[C@@H](C(=O)N[C@H](CCN)C(=O)NCC(=O)N[C@H](CO)C(=O)N[C@H](Cc1c[nH]c2ccccc12)C(=O)N[C@@H](CO)C(=O)N[C@@H](CCN)C(=O)N[C@H](CCN)C(=O)N[C@@H](Cc1ccccc1)C(=O)N[C@@H](CCC(=O)O)C(=O)N[C@H](C(=O)N[C@@H](C(=O)N[C@@H](C)C(=O)O)[C@@H](C)CC)C(C)C)C(C)C showed MIC equal to 3.13

###

So I've got a bunch of compounds here, and I need their MIC values.
- Tested on: Klebsiella pneumoniae
- ASSAY: Antimicrobial activity against carbapenemase-producing Klebsiella pneumoniae IMP 485 assessed as inhibition of bacterial growth incubated for 18 hrs by CLSI based serial broth dilution method
- Type: functional
- MEASUREMENT_PARAMETERS: IMP 485, 18 h
Where a SMILES comes first, the peptide text is derived from it. [ ]: non-standard residue; d: D form. The star is where a group is joined. dDab = NCC[C@@H](N)C(=O)O; Octanoyl = CCCCCCCC(=O)*; Dab = NCC[C@H](N)C(=O)O
Output should be the measured figure followed by the unit it is expressed in.

CCCCCCCC(=O)N[C@@H](C(=O)N[C@H](CCCCN)C(=O)NCC(=O)N[C@H](CO)C(=O)N[C@H](Cc1c[nH]c2ccccc12)C(=O)N[C@@H](CO)C(=O)N[C@@H](CCCCN)C(=O)N[C@H](CCCCN)C(=O)N[C@@H](Cc1ccccc1)C(=O)N[C@@H](CCC(=O)O)C(=O)N[C@H](C(=O)N[C@@H](C(=O)N[C@@H](C)C(=O)O)[C@@H](C)CC)C(C)C)C(C)C (HELM PEPTIDE1{[CCCCCCCC(=O)[*:2]].[dV].[dK].G.[dS].[dW].S.K.[dK].F.E.V.[CC[C@H](C)[C@@H](N[*:1])C(=O)[*:2]].A}$$$$V2.0)
25 µg/mL

The compound CCCCCCCC(=O)N[C@@H](C(=O)N[C@H](CCN)C(=O)NCC(=O)N[C@H](CO)C(=O)N[C@H](Cc1c[nH]c2ccccc12)C(=O)N[C@@H](CO)C(=O)N[C@@H](CCN)C(=O)N[C@H](CCN)C(=O)N[C@@H](Cc1ccccc1)C(=O)N[C@@H](CCC(=O)O)C(=O)N[C@H](C(=O)N[C@@H](C(=O)N[C@@H](C)C(=O)O)C(C)C)C(C)C)C(C)C (Octanoyl-[dV][dDab]G[dS][dW]S[Dab][dDab]FEV[dV]A-OH) showed MIC equal to 12.5 µg/mL

###

So I've got a bunch of compounds here, and I need their MIC values.
- Tested on: Klebsiella pneumoniae
- ASSAY: Antimicrobial activity against carbapenemase-producing Klebsiella pneumoniae IMP 485 assessed as inhibition of bacterial growth incubated for 18 hrs by CLSI based serial broth dilution method
- Format: functional
- MEASUREMENT_PARAMETERS: IMP 485, 18 h
Where a SMILES comes first, the peptide text is derived from it. [ ]: non-standard residue; d: D form. The star is where a group is joined. d(aIle) = CC[C@H](C)[C@@H](N)C(=O)O; dOrn = NCCC[C@@H](N)C(=O)O; dDab = NCC[C@@H](N)C(=O)O; Octanoyl = CCCCCCCC(=O)*; Orn = NCCC[C@H](N)C(=O)O

CCCCCCCC(=O)N[C@@H](C(=O)N[C@H](CCCCN)C(=O)NCC(=O)N[C@H](CO)C(=O)N[C@H](Cc1c[nH]c2ccccc12)C(=O)N[C@@H](CO)C(=O)N[C@@H](CCCCN)C(=O)N[C@H](CCCCN)C(=O)N[C@@H](Cc1ccccc1)C(=O)N[C@@H](CCC(=O)O)C(=O)N[C@H](C(=O)N[C@@H](C(=O)N[C@@H](C)C(=O)O)C(C)C)C(C)C)C(C)C (HELM PEPTIDE1{[CCCCCCCC(=O)[*:2]].[dV].[dK].G.[dS].[dW].S.K.[dK].F.E.V.[dV].A}$$$$V2.0)
> 100 µg/mL

The compound CCCCCCCC(=O)N[C@@H](C(=O)N[C@H](CCCN)C(=O)NCC(=O)N[C@H](CO)C(=O)N[C@H](Cc1c[nH]c2ccccc12)C(=O)N[C@@H](CO)C(=O)N[C@@H](CCCN)C(=O)N[C@H](CCN)C(=O)N[C@@H](Cc1ccccc1)C(=O)N[C@@H](CCC(=O)O)C(=O)N[C@H](C(=O)N[C@@H](C(=O)N[C@@H](C)C(=O)O)[C@@H](C)CC)C(C)C)C(C)C (Octanoyl-[dV][dOrn]G[dS][dW]S[Orn][dDab]FEV[d(aIle)]A-OH) showed MIC equal to 25 µg/mL
